Biological target: T1, Mcl-1, Q07820
T1 chain: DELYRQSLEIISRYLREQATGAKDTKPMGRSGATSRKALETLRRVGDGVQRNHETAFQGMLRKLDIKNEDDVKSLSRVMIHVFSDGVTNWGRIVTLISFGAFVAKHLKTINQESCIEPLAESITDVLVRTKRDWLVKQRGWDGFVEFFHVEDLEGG
Assay: peptide SPOT array, c-Myc-tagged receptor at 1 uM or 100 nM, anti-c-Myc-Cy3
Recorded SPOT signal as a fraction of Bim BH3's signal on the same receptor and array, one value per entry.
In your answer, state the number alone without any accompanying words.

RLAHEHHCLRIKILGDCYYCVSGLPE [ADCY8] = 0.02

// query In one line, give reported SPOT signal as a fraction of Bim BH3's signal on the same receptor and array of the entry EEVFQSLSKILDVASLEVLNEVNRRS [GCN1L1] .
// result 0.14

// query In one line, give reported SPOT signal as a fraction of Bim BH3's signal on the same receptor and array of the entry RGPEAPGGRALRDAAENLFQELQEHF [PRR20C] .
// result 0.02

// query In one line, give reported SPOT signal as a fraction of Bim BH3's signal on the same receptor and array of the entry IVIDCSAIQFLDTAGIHTLKEVRRDY [SLC26A2] .
// result 0.02

// query In one line, give reported SPOT signal as a fraction of Bim BH3's signal on the same receptor and array of the entry SGEFARICRDDSHIGDAVVISCAKDG [PCNA] .
// result 0.01

// query In one line, give reported SPOT signal as a fraction of Bim BH3's signal on the same receptor and array of the entry ISSLDLLPYGLRYIAKVLKNSIHEKF [IQGAP2] .
// result 0.57

// query In one line, give reported SPOT signal as a fraction of Bim BH3's signal on the same receptor and array of the entry LSIIYTLVEIDQNIGDTNLADFTAGL [SLC26A4] .
// result 0.06

// query In one line, give reported SPOT signal as a fraction of Bim BH3's signal on the same receptor and array of the entry GDRAGGRSWCLRRVGMSAGWLLLEDG [RNF8] .
// result 0.06
